Biological target: NADPH oxidase 4 (Homo sapiens)
Test: NOX4-dependent H2O2 signal modulators, primary screen, NOX inhibitor project, cell-based, HEK293-NOX4, tetracycline-induced, Amplex Red fluorescence (AID 1160)
Conditions: 45 min, higher = more signal, called active from +8 up or from −8 down
Reported z-score is given for each of the following compounds.
Field format: numeric only.

CC(C)C[C@@H]1NC(=O)[C@H]2C[C@@H](C(=O)NCCCCCCN)[C@@H](c3ccc(O)cc3)N2C1=O yielded z-score of 1.05

###

Target: Dickkopf-related protein 1 (Homo sapiens) (UniProt O94907)
Sequence (O94907 whole entry, looked up): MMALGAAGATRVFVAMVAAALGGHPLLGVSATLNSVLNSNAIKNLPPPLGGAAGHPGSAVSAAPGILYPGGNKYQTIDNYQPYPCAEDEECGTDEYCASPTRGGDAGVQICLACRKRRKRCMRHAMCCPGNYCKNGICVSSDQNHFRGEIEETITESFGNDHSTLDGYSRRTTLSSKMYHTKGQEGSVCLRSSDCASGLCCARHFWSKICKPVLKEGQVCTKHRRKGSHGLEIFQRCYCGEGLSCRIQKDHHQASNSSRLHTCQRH
Assay: DKK1 binders on small-molecule microarrays, primary screen, biochemical, small-molecule microarray, 635 nm fluorescence scan (AID 1106);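 also: score merges emission near 667 nm with signal to noise over three replicate slides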
Settings: DKK1 binding, higher = more signal
Reported composite z-score is given for each of the following compounds.
Field format: numeric only.

Example compounds with recorded composite z-score:
> print(dat)
                                   compound  reported
1  [N-]=[N+]=Nc1ccccc1[C@H]1OC(c2ccc(OCCCO)cc2)=N[C@@]1(Cc1ccccc1)C(=O)O     0.293
2  O=C1OCCC/C=C\[C@H]2OC34C=CCN(Cn5nnc6ccccc65)C(=O)[C@H]3N(CCO)C(=O)[C@@H]4C12 (some centres undefined)     -1.14
3  CN1C(=O)C2C=CC(C(O)c3ccc(-c4ccccc4)s3)N(N(c3ccccc3)c3ccccc3)C2C1=O (centres undefined)    0.0129

// switching to the query compound
COc1ccc(C(O)C2C=CC3C(=O)N(c4ccccc4)C(=O)C3N2Nc2ccc(C(C)C)cc2)cc1OCc1ccccc1 (centres undefined) yielded composite z-score of -0.213

###

Tested on: XIP peptide (Xip251-270) binding
Experiment: small-molecule binders of XIP peptide, primary screen, biochemical, small-molecule microarray, fluorescence 635/667 nm, 0.1 µg/mL protein (AID 1182)
Details: fluorescent protein binding, 635 nm, higher = more signal, called active from +8 up or from −8 down
MEASURED ENDPOINT: composite z-score
Field format: numeric only.

Example molecules with recorded composite z-score:
MOLECULE	MEASURED ENDPOINT	REPORTED
CN(C)C(=O)[C@@]1(Cc2ccccc2CN=[N+]=[N-])N=C(c2ccc(OCCCO)cc2)O[C@H]1c1ccccc1	composite z-score	1.79
CCCCC(O)C1C=CC2C(=O)N(c3ccccc3)C(=O)C2N1Nc1ccccc1F (stereo not drawn)	composite z-score	0.335
COC(=O)C(CC#Cc1ccc2c(c1)[C@]1(C(=O)N2)[C@H](C(=O)O)[C@H]2C(=O)O[C@H](c3ccccc3)[C@H](c3ccccc3)N2[C@@H]1c1ccc(O)cc1)C(=O)OC	composite z-score	0.12
C=CCN(Cc1ccccc1)C(=O)C(c1cccs1)N(CCOCCO)C(=O)/C=C\C(=O)O (stereo not drawn)	composite z-score	-0.467
O=C1NC(=O)C2C1C=CC(C(O)c1cccc3ccccc13)N2Nc1ccccn1 (stereo not drawn)	composite z-score	-0.219

Response field composite z-score (XIP peptide (Xip251-270) binding) for item CC1CC/C=C\[C@H]2OC34C=CCN(Cn5nnc6ccccc65)C(=O)[C@H]3N(C(CO)C(C)C)C(=O)[C@@H]4C2C(=O)O1 (stereo partly drawn) : 0.575

Response field composite z-score (XIP peptide (Xip251-270) binding) for item C=CC[C@]1(C(=O)N2CCCCC2)N=C(c2ccc(OCCCO)cc2)O[C@H]1c1ccccc1 : 0.754

Response field composite z-score (XIP peptide (Xip251-270) binding) for item Cc1ccc(S[C@]2(C(=O)NC(C)C)CC(=O)N(Cc3ccccc3Cl)[C@@H]2c2ccc(CO)cc2I)cc1 : 0.226
